Record type: MIC measurement. Applies to: Escherichia coli DH5alpha

Structure as smiles	Target desc	Value comparator	MIC (µM)
CC(C)C[C@H](NC(=O)[C@@H](NC(=O)[C@H](CCCCN)NC(=O)[C@H](CO)NC(=O)[C@H](CC(C)C)NC(=O)[C@H](C)NC(=O)[C@H](CCCCN)NC(=O)[C@H](Cc1ccccc1)NC(=O)[C@H](CC(C)C)NC(=O)[C@H](C)NC(=O)CNC(=O)[C@H](CC(C)C)NC(=O)[C@@H](N)Cc1ccccc1)C(C)C)C(=O)O	Escherichia coli DH5alpha	=	28.4
CC(C)C[C@H](NC(=O)CNC(=O)[C@@H](NC(=O)[C@H](CC(C)C)NC(=O)[C@H](C)NC(=O)[C@@H](N)C(C)C)[C@@H](C)O)C(=O)N[C@H](C(=O)N[C@H](C(=O)N[C@@H](C)C(=O)N[C@@H](CCC(=O)O)C(=O)N[C@@H](Cc1ccc(O)cc1)C(=O)N[C@@H](Cc1ccccc1)C(=O)N[C@@H](CCCN=C(N)N)C(=O)O)C(C)C)[C@@H](C)O	Escherichia coli DH5alpha	=	3.9
CC(C)[C@H](NC(=O)[C@H](Cc1c[nH]c2ccccc12)NC(=O)[C@H](Cc1cnc[nH]1)NC(=O)[C@H](CCCN=C(N)N)NC(=O)[C@H](CCCN=C(N)N)NC(=O)[C@H](Cc1c[nH]c2ccccc12)NC(=O)[C@H](Cc1c[nH]c2ccccc12)NC(=O)[C@H](Cc1cnc[nH]1)NC(=O)[C@H](Cc1c[nH]c2ccccc12)NC(=O)[C@H](CCCN=C(N)N)NC(=O)[C@@H](N)CCCCN)C(=O)N[C@H](C(=O)N[C@@H](Cc1c[nH]c2ccccc12)C(N)=O)C(C)C	Escherichia coli DH5alpha	=	25
NCCCC[C@H](NC(=O)[C@H](CCCN=C(N)N)NC(=O)[C@H](CCCCN)NC(=O)[C@H](CCCCN)NC(=O)[C@H](CCCN=C(N)N)NC(=O)[C@@H](N)CCCCN)C(=O)O	Escherichia coli DH5alpha	≥	64
CC(C)C[C@H](NC(=O)[C@H](CC(C)C)NC(=O)[C@H](CCCCN)NC(=O)[C@H](CO)NC(=O)[C@H](CC(C)C)NC(=O)[C@H](C)NC(=O)[C@H](CCCCN)NC(=O)[C@H](C)NC(=O)[C@H](CC(C)C)NC(=O)[C@H](C)NC(=O)CNC(=O)[C@H](CC(C)C)NC(=O)[C@@H](N)Cc1ccccc1)C(=O)O	Escherichia coli DH5alpha	≥	74.4

###

Record type: log10(MIC) measurement. Applies to: Staphylococcus aureus USA 300
Quantity measured: log10(MIC) (log10 of the value in µM)

Compound	Target desc	log10(MIC)
CC[C@H](C)[C@H](N)C(=O)N[C@@H](CC(C)C)C(=O)N[C@@H](CCCCN)C(=O)N[C@@H](CCCCN)C(=O)N[C@H](C(=O)N[C@@H](Cc1c[nH]c2ccccc12)C(=O)N[C@@H](CCC(=O)O)C(=O)NCC(=O)N[C@H](C(=O)N[C@@H](CCCCN)C(=O)N[C@@H](CO)C(=O)N[C@@H](CC(C)C)C(=O)N[C@@H](Cc1ccccc1)C(N)=O)[C@@H](C)CC)[C@@H](C)CC [ILKKIWEGIKSLF]	Staphylococcus aureus USA 300	1.01
CC[C@H](C)[C@H](NC(=O)[C@H](C)NC(=O)[C@H](CCCCN)NC(=O)[C@H](CCCN=C(N)N)NC(=O)[C@@H](NC(=O)[C@H](CC(C)C)NC(=O)[C@H](CO)NC(=O)[C@H](Cc1ccccc1)NC(=O)[C@H](CC(C)C)NC(=O)[C@@H](N)Cc1ccccc1)[C@@H](C)CC)C(=O)NCC(=O)NCC(=O)N[C@@H](CC(C)C)C(=O)N[C@H](C(=O)N[C@@H](CO)C(=O)N[C@@H](C)C(=O)N[C@@H](Cc1ccccc1)C(=O)N[C@@H](CCCCN)C(=O)O)[C@@H](C)CC [FLFSLIRKAIGGLISAFK]	Staphylococcus aureus USA 300	1.21
CC(C)C[C@H](NC(=O)[C@H](CC(C)C)NC(=O)[C@H](CCCCN)NC(=O)[C@H](CC(C)C)NC(=O)CNC(=O)[C@H](CC(C)C)NC(=O)[C@H](CO)NC(=O)[C@H](CC(C)C)NC(=O)[C@H](CC(C)C)NC(=O)[C@H](CO)NC(=O)[C@H](CC(C)C)NC(=O)[C@H](CC(C)C)NC(=O)CN)C(N)=O [GLLSLLSLGLKLL]	Staphylococcus aureus USA 300	-0.10
CC[C@H](C)[C@H](N)C(=O)N[C@@H](CCCN=C(N)N)C(=O)N[C@H](C(=O)N[C@@H](CCCCN)C(=O)N[C@H](C(=O)N[C@@H](CCCN=C(N)N)C(=O)N[C@H](C(=O)N[C@@H](CCCCN)C(N)=O)[C@@H](C)CC)[C@@H](C)CC)[C@@H](C)CC [IRIKIRIK]	Staphylococcus aureus USA 300	1.10
CC[C@H](C)[C@H](NC(=O)[C@H](CCCN=C(N)N)NC(=O)[C@H](CCCN=C(N)N)NC(=O)[C@H](CC(C)C)NC(=O)[C@H](Cc1c[nH]c2ccccc12)NC(=O)[C@H](Cc1c[nH]c2ccccc12)NC(=O)[C@@H](N)Cc1c[nH]c2ccccc12)C(=O)N[C@@H](Cc1c[nH]c2ccccc12)C(N)=O [WWWLRRIW]	Staphylococcus aureus USA 300	0.49
